- TARGET DESC: c-Src SH2
- PROTOCOL DETAILS: SH2 binding enrichment of the phosphorylated peptide, bacterial display (enrichment ratio); higher = better substrate or ligand; peptides without Tyr show the background
PROPERTY MEASURED: SH2 binding enrichment

Worked examples follow.
Task: Item under review: FETSHYLASPD [CTNND2_Y1217_P1218L_YF] . Reported SH2 binding enrichment?
Output: 0.473

Task: Item under review: KNKNRCKNILP [PTPN11_Y279_Y279C] . Reported SH2 binding enrichment?
Output: 0.892

Task: Item under review: PQGVRYTFTID [DCX_Y103_I104T_YF] . Reported SH2 binding enrichment?
Output: 0.452

Task: Item under review: YVFSFYHAFSG [ACTN4_Y265_S262F] . Reported SH2 binding enrichment?
Output: 0.889

Task: Item under review: DVVKDCAFVHM [RBM14_Y114_Y114C] . Reported SH2 binding enrichment?
Output: 0.523

I: EYLQKYKGFKI [SYNE1_Y6953]
II: GGGGGYNRSSG [FUS_Y232]
Task: Select one. Lower SH2 binding enrichment: I or II # answer = label of selected item
Output: II
(II: 0.34, I: 0.551)

1: PPGRSYSPCDF [TNS1_Y793_Y796C_YF]
2: YQCKHYACIRQ [TIMP3_Y182_S179C]
3: PRARTYCFKQE [KLHDC9_Y175_S171R_YF]
Task: Could you please order the items by SH2 binding enrichment, going from the lowest number to the highest? Quick reminder: the answer is the labels in the order asked.
Output: 1, 3, 2
(1: 0.696, 3: 1.35, 2: 2.39)

1: MANFMYKAGPS [MAML2_Y515_YF]
2: EACRSYSHVVL [CHST6_Y168]
Task: Which entry has a larger number for SH2 binding enrichment, 1 or 2 ? # answer = label of selected item
Output: 2

A: MSRDVYSTDCF [NTRK2_Y702_Y706C_YF]
B: NVVHEYSSELE [FGB_Y172_N170H]
Task: Select one. Lower SH2 binding enrichment: A or B # answer = label of selected item
Output: A
(A: 0.757, B: 1.48)

* * *

- TARGET DESC: SHP2-C SH2
- PROTOCOL DETAILS: SH2 binding enrichment of the phosphorylated peptide, bacterial display (enrichment ratio); higher = better substrate or ligand; peptides without Tyr show the background
PROPERTY MEASURED: SH2 binding enrichment

a: FPRAWYRRSIA [KIAA1109_Y4272]
b: YQSKHYACIRQ [TIMP3_Y182]
c: NAGDYYDLYGG [PTPN11_Y63_T59A]
d: RTESQYQENRG [LRCH3_Y354_R350T]
e: EACRSYSHVVL [CHST6_Y168]
Task: Your job: order these 5 records by SH2 binding enrichment, ascending. Quick reminder: the answer is the labels in the order asked.
Output: a, c, d, e, b
(a: 0.339, c: 0.595, d: 0.862, e: 2.2, b: 6.64)

* * *

- TARGET DESC: SHP2-C SH2
- PROTOCOL DETAILS: SH2 binding enrichment of the phosphorylated peptide, bacterial display (enrichment ratio); higher = better substrate or ligand; peptides without Tyr show the background
PROPERTY MEASURED: SH2 binding enrichment

Task: Item under review: FTYDPYSEEDP [IL2RB_Y387] . Reported SH2 binding enrichment?
Output: 0.694

Task: Item under review: DRLASNLDKVR [KRT10_Y160_Y160N] . Reported SH2 binding enrichment?
Output: 0.917

Task: Item under review: GAPATYEGDAR [CACNA1A_Y1013] . Reported SH2 binding enrichment?
Output: 0.669

Task: Item under review: AKGMKYVASKK [MET_Y1194_L1195V] . Reported SH2 binding enrichment?
Output: 0.763

* * *

- TARGET DESC: c-Src SH2
- PROTOCOL DETAILS: SH2 binding enrichment of the phosphorylated peptide, bacterial display (enrichment ratio); higher = better substrate or ligand; peptides without Tyr show the background
PROPERTY MEASURED: SH2 binding enrichment

Worked examples follow.
Task: Item under review: SVEVPYEPPEV [TP53_Y220_V217E] . Reported SH2 binding enrichment?
Output: 0.591

Task: Item under review: FLRKEYGGLNV [CBR3_Y81] . Reported SH2 binding enrichment?
Output: 0.435

Task: Item under review: GLRSFYETSKM [MAGED2_Y449_YF] . Reported SH2 binding enrichment?
Output: 0.582

Task: Item under review: SFKNKYGMVAQ [APOB_Y276_YF] . Reported SH2 binding enrichment?
Output: 0.455

Task: Item under review: GSSEDYLHMVH [NIPBL_Y247] . Reported SH2 binding enrichment?
Output: 0.465

I: EHTTLYSDNST [KANSL1_Y223_N225D]
II: FCGFSYDDIPD [TMEM230_Y112_R108C_YF]
III: YCRHNYGVVES [HLA-DRB1_Y112]
IV: FLAVEYHKPHI [IDS_Y225_G224E]
Task: Could you please order the items by SH2 binding enrichment, going from the lowest number to the highest? Quick reminder: the answer is the labels in the order asked.
Output: I, IV, III, II

* * *

Listed sequences paired with reported phosphorylation enrichment
- TARGET DESC: FGFR1 (UniProt P11362)
- Sequence (P11362 whole entry, looked up): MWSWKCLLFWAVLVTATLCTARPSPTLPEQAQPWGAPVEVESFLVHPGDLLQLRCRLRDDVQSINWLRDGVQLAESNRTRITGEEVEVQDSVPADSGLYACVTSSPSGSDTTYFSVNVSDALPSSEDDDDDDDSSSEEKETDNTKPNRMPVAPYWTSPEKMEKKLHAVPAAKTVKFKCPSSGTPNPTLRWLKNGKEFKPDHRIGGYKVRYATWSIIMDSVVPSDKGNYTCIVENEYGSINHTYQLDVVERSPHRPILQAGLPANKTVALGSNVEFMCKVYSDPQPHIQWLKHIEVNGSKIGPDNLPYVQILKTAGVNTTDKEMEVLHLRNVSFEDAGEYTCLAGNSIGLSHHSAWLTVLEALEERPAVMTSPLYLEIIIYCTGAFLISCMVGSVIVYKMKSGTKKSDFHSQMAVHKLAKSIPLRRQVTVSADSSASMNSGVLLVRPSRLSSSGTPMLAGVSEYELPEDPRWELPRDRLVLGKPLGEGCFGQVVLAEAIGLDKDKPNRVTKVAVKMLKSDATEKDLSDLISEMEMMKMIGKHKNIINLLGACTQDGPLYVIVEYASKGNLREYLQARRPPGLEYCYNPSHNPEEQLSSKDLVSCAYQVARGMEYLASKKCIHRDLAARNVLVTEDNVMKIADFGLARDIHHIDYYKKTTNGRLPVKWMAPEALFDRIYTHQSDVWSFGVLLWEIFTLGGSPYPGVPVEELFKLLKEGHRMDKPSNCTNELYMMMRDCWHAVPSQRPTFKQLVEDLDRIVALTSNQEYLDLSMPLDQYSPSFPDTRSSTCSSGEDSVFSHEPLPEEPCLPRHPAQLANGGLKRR
- PROTOCOL DETAILS: phosphorylation enrichment, bacterial display (enrichment ratio); higher = better substrate or ligand; peptides without Tyr show the background
Reply briefly: the number, and no unit.

Task: Item under review: EHTTLYSDNST [KANSL1_Y223_N225D] . Reported phosphorylation enrichment?
Output: 0.475

Task: Item under review: GIVKAYFVRAR [AIPL1_Y267_YF] . Reported phosphorylation enrichment?
Output: 0.487

Task: Item under review: FLLTVYSIFSK [SGCE_Y38] . Reported phosphorylation enrichment?
Output: 0.496

Task: Item under review: GREYIYVDPMQ [PDGFRA_Y574_H570R] . Reported phosphorylation enrichment?
Output: 12.7

Task: Item under review: FDDIAYIRKNL [PIK3CA_Y1021_T1025N] . Reported phosphorylation enrichment?
Output: 0.432

***
Task: Item under review: AFEQQYSPIPK [NOX1_Y373_R378K] . Reported phosphorylation enrichment?
Output: 0.744

Task: Item under review: NTDETYSIDNE [TUBB2B_Y200_C201S] . Reported phosphorylation enrichment?
Output: 0.551

Task: Item under review: ASTDYNKRGDF [PDHA1_Y243_Y243N] . Reported phosphorylation enrichment?
Output: 0.421

* * *

Listed sequences paired with reported phosphorylation enrichment
- TARGET DESC: EPHB1 (UniProt P54762)
- Sequence (P54762 whole entry, looked up): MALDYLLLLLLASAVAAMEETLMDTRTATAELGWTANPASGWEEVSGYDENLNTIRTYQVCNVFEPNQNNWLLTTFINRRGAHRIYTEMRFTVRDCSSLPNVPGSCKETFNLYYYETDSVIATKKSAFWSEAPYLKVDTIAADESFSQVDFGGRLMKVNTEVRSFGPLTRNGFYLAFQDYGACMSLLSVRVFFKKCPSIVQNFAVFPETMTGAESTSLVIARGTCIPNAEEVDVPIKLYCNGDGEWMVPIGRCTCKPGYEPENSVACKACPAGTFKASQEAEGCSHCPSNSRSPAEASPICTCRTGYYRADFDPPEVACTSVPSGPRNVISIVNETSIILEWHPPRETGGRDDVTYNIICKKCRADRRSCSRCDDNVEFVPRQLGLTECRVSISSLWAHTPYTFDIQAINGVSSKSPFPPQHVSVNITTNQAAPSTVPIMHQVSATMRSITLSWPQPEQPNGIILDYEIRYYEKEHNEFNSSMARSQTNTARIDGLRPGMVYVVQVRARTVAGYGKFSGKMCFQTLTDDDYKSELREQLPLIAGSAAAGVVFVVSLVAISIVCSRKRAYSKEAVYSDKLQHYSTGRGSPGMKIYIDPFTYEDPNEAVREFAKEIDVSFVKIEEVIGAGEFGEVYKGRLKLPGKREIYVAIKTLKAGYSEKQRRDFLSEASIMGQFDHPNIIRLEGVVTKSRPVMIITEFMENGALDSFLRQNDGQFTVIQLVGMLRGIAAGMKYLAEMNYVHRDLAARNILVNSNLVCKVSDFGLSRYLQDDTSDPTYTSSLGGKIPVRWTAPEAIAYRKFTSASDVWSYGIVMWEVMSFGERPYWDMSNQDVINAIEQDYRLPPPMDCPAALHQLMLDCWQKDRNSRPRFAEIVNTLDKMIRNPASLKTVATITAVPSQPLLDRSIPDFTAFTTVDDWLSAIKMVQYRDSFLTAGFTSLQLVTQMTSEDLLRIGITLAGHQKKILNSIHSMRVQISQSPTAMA
- PROTOCOL DETAILS: phosphorylation enrichment, bacterial display (enrichment ratio); higher = better substrate or ligand; peptides without Tyr show the background
Reply briefly: the number, and no unit.

Worked examples follow.
Task: Item under review: KDQGGYTMHQD [MAPT_Y29] . Reported phosphorylation enrichment?
Output: 0.4

Task: Item under review: NGSFRYVIISQ [LRP1B_Y1988] . Reported phosphorylation enrichment?
Output: 0.599

Task: Item under review: AVSHRYDLGGL [QPRT_Y162_A158V] . Reported phosphorylation enrichment?
Output: 0.403

Now examine the next entry.
Task: Item under review: CSHMFYGKQCC [ADAMTS16_Y1211_K1209M] . Reported phosphorylation enrichment?
Output: 0.587

* * *

- Test system: c-Abl (mouse)
- PROTOCOL DETAILS: phosphorylation enrichment, bacterial display (enrichment ratio); higher = better substrate or ligand; peptides without Tyr show the background
PROPERTY MEASURED: phosphorylation enrichment
Reply briefly: the number, and no unit.

Worked examples follow.
Task: Item under review: TEAEPYFCSLR [NPHS1_Y1138_R1140C_YF] . Reported phosphorylation enrichment?
Output: 0.814

Task: Item under review: NFATLHLKIFH [PDE6B_Y219_Y219H_YF] . Reported phosphorylation enrichment?
Output: 0.918

Task: Item under review: GQETSYIEDNC [PAH_Y24] . Reported phosphorylation enrichment?
Output: 0.74

Task: Item under review: LNPDGYEKAYE [CPXM2_Y427] . Reported phosphorylation enrichment?
Output: 0.773

Task: Item under review: LEIETYPRLLD [KRT12_Y429_R430P] . Reported phosphorylation enrichment?
Output: 1.1

***
Task: Item under review: KLVQLYDVCTK [BTK_Y461_G462D] . Reported phosphorylation enrichment?
Output: 1.25

Task: Item under review: IFRAAYFGVFD [SLC25A4_Y191_YF] . Reported phosphorylation enrichment?
Output: 0.761

* * *

- TARGET DESC: EPHB2 (UniProt P29323)
- Sequence (P29323 whole entry, looked up): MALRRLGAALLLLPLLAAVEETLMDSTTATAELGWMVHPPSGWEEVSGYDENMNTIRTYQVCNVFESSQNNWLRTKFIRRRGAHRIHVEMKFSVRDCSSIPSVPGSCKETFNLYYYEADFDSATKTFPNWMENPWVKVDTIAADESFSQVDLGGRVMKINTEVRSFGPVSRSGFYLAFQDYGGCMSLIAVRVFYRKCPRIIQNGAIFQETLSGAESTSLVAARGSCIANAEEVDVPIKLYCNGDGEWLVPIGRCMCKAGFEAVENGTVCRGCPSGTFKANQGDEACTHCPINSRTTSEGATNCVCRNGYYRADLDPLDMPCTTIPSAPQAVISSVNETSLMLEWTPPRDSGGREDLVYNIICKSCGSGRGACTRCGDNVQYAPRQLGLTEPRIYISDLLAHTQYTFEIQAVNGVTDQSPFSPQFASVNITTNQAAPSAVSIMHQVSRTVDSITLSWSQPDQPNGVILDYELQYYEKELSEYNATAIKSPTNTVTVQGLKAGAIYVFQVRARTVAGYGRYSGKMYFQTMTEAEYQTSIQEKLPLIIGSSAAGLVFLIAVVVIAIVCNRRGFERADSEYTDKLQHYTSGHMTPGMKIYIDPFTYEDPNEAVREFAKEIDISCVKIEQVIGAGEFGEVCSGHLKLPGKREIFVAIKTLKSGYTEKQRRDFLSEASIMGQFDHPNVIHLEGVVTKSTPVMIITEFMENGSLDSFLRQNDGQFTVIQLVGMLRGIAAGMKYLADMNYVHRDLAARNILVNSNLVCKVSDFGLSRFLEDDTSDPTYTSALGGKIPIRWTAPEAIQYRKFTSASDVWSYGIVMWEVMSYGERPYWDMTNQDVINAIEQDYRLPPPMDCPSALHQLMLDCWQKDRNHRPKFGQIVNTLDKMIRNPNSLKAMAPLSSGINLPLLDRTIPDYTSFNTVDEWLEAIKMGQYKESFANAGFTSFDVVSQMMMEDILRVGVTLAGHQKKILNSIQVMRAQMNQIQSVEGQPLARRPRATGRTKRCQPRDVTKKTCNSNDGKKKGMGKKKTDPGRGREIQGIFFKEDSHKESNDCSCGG
- PROTOCOL DETAILS: phosphorylation enrichment, bacterial display (enrichment ratio); higher = better substrate or ligand; peptides without Tyr show the background
PROPERTY MEASURED: phosphorylation enrichment
Reply briefly: the number, and no unit.

Worked examples follow.
Task: Item under review: IVAEYYDNLPH [DEGS1_Y284_A280V] . Reported phosphorylation enrichment?
Output: 0.924

Task: Item under review: YRQLPYCPSVE [CTNND2_Y508_Q507P] . Reported phosphorylation enrichment?
Output: 0.747

Task: Item under review: HNLDFYKETTN [FGFR3_Y648_K650E_YF] . Reported phosphorylation enrichment?
Output: 0.496

Task: Item under review: IFLADCRIMEG [ALOX12B_Y318_Y318C_YF] . Reported phosphorylation enrichment?
Output: 0.664

***
Task: Item under review: KGSEGYLAAIY [NF1_Y2503_T2507I] . Reported phosphorylation enrichment?
Output: 0.561

Task: Item under review: FETSHYLASPD [CTNND2_Y1217_P1218L_YF] . Reported phosphorylation enrichment?
Output: 0.635

Task: Item under review: AQMAMYFWEMG [TRPM4_Y577] . Reported phosphorylation enrichment?
Output: 0.914
